experimental_system: Sodium-dependent phosphate transport protein 2B (Homo sapiens)
protocol_details: Inhibition of human NaPi2b transfected in human KJMGER8 cells assessed as reduction in H2[33P]O4 uptake incubated for 60 mins by TopCount scintillation counting method
pIC50: −log10 of the molar value.
result_type: pIC50

Example results:
{"chem_smiles": "Cc1cc(NC(=O)c2c(NC(=O)c3cccc(OCCOCCOCCOCCOCCOCCOCC(=O)O)c3)sc3c2CCC(C)(C)C3)ccc1CCc1ccc(-c2nccs2)cc1", "obs_value": 6.54}
{"chem_smiles": "COC(=O)c1ccc(CCc2ccc(NC(=O)c3c(NC(=O)c4cccc(OCCOCCOCCOCCOCCOCCOCC(=O)O)c4)sc4c3CCC(C)(C)C4)cc2C)cc1", "obs_value": 7.15}
{"chem_smiles": "Cc1nnc(-c2ccc(CCc3ccc(NC(=O)c4c(NC(=O)c5cccc(CSCCOCCOCCOCCOCCOCCOCCOCCOCCC(=O)O)c5)sc5c4CCC(C)(C)C5)cc3)cc2)o1", "obs_value": 7.62}
{"chem_smiles": "CC1(C)CCc2c(sc(NC(=O)c3cccc(COCCOCCOCCOCCOCCOCCO)c3)c2C(=O)Nc2ccccc2)C1", "obs_value": 5.85}

A: COc1ccc(NC(=O)c2c(NC(=O)c3cccc(COCCOCCOCCOCCOCCOCCO)c3)sc3c2CCC(C)(C)C3)cc1
B: Cc1nnc(-c2ccc(CCc3ccc(NC(=O)c4c(NC(=O)c5cccc(COCCOCCOCCOCC(=O)O)c5)sc5c4CCC(C)(C)C5)cc3)cc2)o1
C: CC1(C)CCc2c(sc3nc(-c4cccc(COCCOCCOCCOCCOCCOCCO)c4)oc(=O)c23)C1
D: Cc1nnc(-c2ccc(CCc3ccc(NC(=O)c4c(NC(=O)c5cccc(CN(C)CCOCCOCCOCCC(=O)O)c5)sc5c4CCC(C)(C)C5)cc3)cc2)o1
E: Cc1nnc(-c2ccc(CCc3ccc(NC(=O)c4c(NC(=O)c5cccc(COCCOCCOCCOCCOCCOCCOCC(=O)O)c5)sc5c4CCC(C)(C)C5)cc3)cc2)o1
# sort list by recorded pIC50, greatest to least Reply: labels, ordered per the request.
D, B, E, A, C

###

protocol_details: Aqueous solubility of compound in PBS buffer at pH 7.4
Type: physicochemical
result_type: solubility (µM)

Some solved entries appear below for comparison.
{"chem_smiles": "COC(=O)c1ccc(CCc2ccc(NC(=O)c3c(NC(=O)c4cccc(COCCOCCOCCOCCOCCOCCO)c4)sc4c3CCC(C)(C)C4)cc2C)cc1", "solubility (µM)": 0.72}
{"chem_smiles": "Cc1cc(NC(=O)c2c(NC(=O)c3cccc(OCCOCCOCCOCCOCCOCCOCC(=O)O)c3)sc3c2CCC(C)(C)C3)ccc1CCc1ccc(-c2nccs2)cc1", "solubility (µM)": 87}
{"chem_smiles": "Cc1nnc(-c2ccc(CCc3ccc(NC(=O)c4c(NC(=O)c5cccc(COCCOCCOCCOCC(=O)O)c5)sc5c4CCC(C)(C)C5)cc3)cc2)o1", "solubility (µM)": 156}

I: COC(=O)c1ccc(CCc2ccc(NC(=O)c3c(NC(=O)c4cccc(OCCOCCOCCOCCOCCOCCOCC(=O)O)c4)sc4c3CCC(C)(C)C4)cc2C)cc1
II: CC1(C)CCc2c(sc(NC(=O)c3cccc(COCCOCCOCCOCCOCCOCCO)c3)c2C(=O)Nc2ccc(Cc3ccccc3)cc2)C1
III: Cc1nnc(-c2ccc(CCc3ccc(NC(=O)c4c(NC(=O)c5cccc(COCCOCCOCCOCCOCCOCCOCC(=O)O)c5)sc5c4CCC(C)(C)C5)cc3)cc2)o1
I would appreciate it if you could sort these 3 molecules by solubility, starting from the smallest number. Lab note: record answer as labels in requested order.
II, III, I
(II: 0.48 µM, III: 62 µM, I: 116 µM)

###

protocol_details: Membrane permeability of compound
Type: ADME
condition_label: not told; read-out: permeability
result_type: Papp

What does the record list as Papp for Cc1nnc(-c2ccc(CCc3ccc(NC(=O)c4c(NC(=O)c5cccc(CN(C)CCOCCOCCOCCC(=O)O)c5)sc5c4CCC(C)(C)C5)cc3)cc2)o1 ?
< 0.09 ×10⁻⁶ cm/s

###

protocol_details: Aqueous solubility of compound in PBS buffer at pH 7.4
Type: physicochemical
result_type: solubility (µM)

Example results:
{"chem_smiles": "COC(=O)c1ccc(CCc2ccc(NC(=O)c3c(NC(=O)c4cccc(OCCOCCOCCOCCOCCOCCO)c4)sc4c3CCC(C)(C)C4)cc2)cc1", "result_type": "solubility", "obs_value": 1.6}
{"chem_smiles": "COc1ccc(NC(=O)c2c(NC(=O)c3cccc(COCCOCCOCCOCCOCCOCCO)c3)sc3c2CCC(C)(C)C3)cc1", "result_type": "solubility", "obs_value": 2.3}
{"chem_smiles": "Cc1nnc(-c2ccc(CCc3ccc(NC(=O)c4c(NC(=O)c5cccc(CSCCOCCOCCOCCOCCOCCOCCOCCOCCC(=O)O)c5)sc5c4CCC(C)(C)C5)cc3)cc2)o1", "result_type": "solubility", "obs_value": 91}
{"chem_smiles": "CC1(C)CCc2c(sc3nc(-c4cccc(COCCOCCOCCOCCOCCOCCO)c4)oc(=O)c23)C1", "result_type": "solubility", "obs_value": 36}
{"chem_smiles": "Cc1cc(NC(=O)c2c(NC(=O)c3cccc(OCCOCCOCCOCCOCCOCCOCC(=O)O)c3)sc3c2CCC(C)(C)C3)ccc1CCc1ccc(-c2ncco2)cc1", "result_type": "solubility", "obs_value": 79}
{"chem_smiles": "CC1(C)CCc2c(sc(NC(=O)c3cccc(COCCOCCOCCOCCOCCOCCO)c3)c2C(=O)Nc2ccccc2)C1", "result_type": "solubility", "obs_value": 81}

A: CCc1ccc(NC(=O)c2c(NC(=O)c3cccc(COCCOCCOCCOCCOCCOCCO)c3)sc3c2CCC(C)(C)C3)cc1
B: Cc1nnc(-c2ccc(CCc3ccc(NC(=O)c4c(NC(=O)c5cccc(CN(C)CCOCCOCCOCCC(=O)O)c5)sc5c4CCC(C)(C)C5)cc3)cc2)o1
Between these two entries, A and B , state which has the higher solubility. Please identify the chosen entry by its label.
B
(B: 96 µM, A: 0.39 µM)

###

experimental_system: Sodium-dependent phosphate transport protein 2B (Homo sapiens, UniProt O95436)
Sequence (O95436 whole entry): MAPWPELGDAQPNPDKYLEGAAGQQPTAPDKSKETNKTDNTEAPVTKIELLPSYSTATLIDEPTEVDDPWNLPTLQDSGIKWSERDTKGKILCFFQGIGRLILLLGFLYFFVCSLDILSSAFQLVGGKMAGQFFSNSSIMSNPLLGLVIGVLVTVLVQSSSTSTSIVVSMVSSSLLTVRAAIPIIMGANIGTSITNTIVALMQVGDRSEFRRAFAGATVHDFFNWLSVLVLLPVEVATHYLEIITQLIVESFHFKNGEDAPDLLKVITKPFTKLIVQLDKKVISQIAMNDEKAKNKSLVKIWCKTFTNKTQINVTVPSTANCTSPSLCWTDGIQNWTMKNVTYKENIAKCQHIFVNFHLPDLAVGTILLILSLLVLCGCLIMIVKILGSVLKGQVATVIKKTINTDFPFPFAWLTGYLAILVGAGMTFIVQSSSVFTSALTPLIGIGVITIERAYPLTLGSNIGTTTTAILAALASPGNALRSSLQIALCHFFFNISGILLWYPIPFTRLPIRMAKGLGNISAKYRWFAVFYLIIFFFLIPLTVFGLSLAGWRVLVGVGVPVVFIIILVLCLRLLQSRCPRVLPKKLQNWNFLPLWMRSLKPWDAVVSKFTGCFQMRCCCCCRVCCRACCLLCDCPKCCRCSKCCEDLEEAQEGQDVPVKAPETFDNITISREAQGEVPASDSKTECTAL
protocol_details: Inhibition of human NaPi2b transfected in human KJMGER8 cells assessed as reduction in H2[33P]O4 uptake incubated for 60 mins by TopCount scintillation counting method
Form field: IC50 (one value per entry).

Solved entries (count: 3):
{"chem_smiles": "COC(=O)c1ccc(CCc2ccc(NC(=O)c3c(NC(=O)c4cccc(COCCOCCOCCOCCOCCOCCO)c4)sc4c3CCC(C)(C)C4)cc2C)cc1", "IC50": "< 100 nM"}
{"chem_smiles": "CC1(C)CCc2c(sc(NC(=O)c3cccc(COCCOCCOCCOCCOCCOCCO)c3)c2C(=O)Nc2ccc(Cc3ccccc3)cc2)C1", "IC50": "< 100 nM"}
{"chem_smiles": "Cc1cc(NC(=O)c2c(NC(=O)c3cccc(OCCOCCOCCOCCOCCOCCOCC(=O)O)c3)sc3c2CCC(C)(C)C3)ccc1CCc1ccc(-c2ncco2)cc1", "IC50": "43 nM"}

Short answer please: IC50, Sodium-dependent phosphate transport protein 2B (Homo sapiens, UniProt O95436), entry COC(=O)c1ccc(CCc2ccc(NC(=O)c3c(NC(=O)c4cccc(OCCOCCOCCOCCOCCOCCO)c4)sc4c3CCC(C)(C)C4)cc2)cc1
< 100 nM

Please tell me: IC50 of CCc1ccc(NC(=O)c2c(NC(=O)c3cccc(COCCOCCOCCOCCOCCOCCO)c3)sc3c2CCC(C)(C)C3)cc1 , system Sodium-dependent phosphate transport protein 2B (Homo sapiens, UniProt O95436)?
< 100 nM

Record CC1(C)CCc2c(sc(NC(=O)c3cccc(OCCOCCOCCOCCOCCOCCO)c3)c2C(=O)Nc2ccc(CCc3ccc(C(=O)O)cc3)cc2)C1 : what is its IC50 with Sodium-dependent phosphate transport protein 2B (Homo sapiens, UniProt O95436)?
< 100 nM
